This listing pairs molecules with measured DC50.
# subject-of-test: Helios (Homo sapiens, UniProt Q96SW2+Q9UKS7)
# Sequence (Q9UKS7 whole entry): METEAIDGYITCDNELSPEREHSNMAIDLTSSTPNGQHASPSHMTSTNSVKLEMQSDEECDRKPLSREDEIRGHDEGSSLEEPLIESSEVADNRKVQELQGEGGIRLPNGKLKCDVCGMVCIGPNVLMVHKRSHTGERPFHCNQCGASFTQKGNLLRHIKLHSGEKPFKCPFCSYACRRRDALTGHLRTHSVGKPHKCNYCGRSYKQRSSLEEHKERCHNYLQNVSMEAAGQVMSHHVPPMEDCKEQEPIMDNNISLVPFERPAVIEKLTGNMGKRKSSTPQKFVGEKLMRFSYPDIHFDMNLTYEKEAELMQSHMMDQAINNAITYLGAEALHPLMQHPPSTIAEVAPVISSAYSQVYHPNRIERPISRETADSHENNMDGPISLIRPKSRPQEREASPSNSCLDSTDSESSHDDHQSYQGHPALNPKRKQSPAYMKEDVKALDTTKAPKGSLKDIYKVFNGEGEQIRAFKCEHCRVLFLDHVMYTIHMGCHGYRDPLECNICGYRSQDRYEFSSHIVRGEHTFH
# Sequence (Q96SW2 whole entry): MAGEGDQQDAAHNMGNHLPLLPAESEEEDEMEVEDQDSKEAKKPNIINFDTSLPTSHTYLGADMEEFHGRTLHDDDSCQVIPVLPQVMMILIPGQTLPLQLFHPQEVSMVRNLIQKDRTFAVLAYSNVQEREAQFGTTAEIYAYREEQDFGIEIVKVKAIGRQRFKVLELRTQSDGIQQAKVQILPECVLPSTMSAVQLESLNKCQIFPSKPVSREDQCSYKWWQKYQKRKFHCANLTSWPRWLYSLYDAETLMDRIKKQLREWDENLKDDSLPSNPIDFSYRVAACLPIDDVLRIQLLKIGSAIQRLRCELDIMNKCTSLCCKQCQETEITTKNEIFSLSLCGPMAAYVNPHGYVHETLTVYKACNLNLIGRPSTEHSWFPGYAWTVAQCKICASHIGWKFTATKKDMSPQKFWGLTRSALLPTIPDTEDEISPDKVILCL
# Sequence (Q16531 whole entry partner): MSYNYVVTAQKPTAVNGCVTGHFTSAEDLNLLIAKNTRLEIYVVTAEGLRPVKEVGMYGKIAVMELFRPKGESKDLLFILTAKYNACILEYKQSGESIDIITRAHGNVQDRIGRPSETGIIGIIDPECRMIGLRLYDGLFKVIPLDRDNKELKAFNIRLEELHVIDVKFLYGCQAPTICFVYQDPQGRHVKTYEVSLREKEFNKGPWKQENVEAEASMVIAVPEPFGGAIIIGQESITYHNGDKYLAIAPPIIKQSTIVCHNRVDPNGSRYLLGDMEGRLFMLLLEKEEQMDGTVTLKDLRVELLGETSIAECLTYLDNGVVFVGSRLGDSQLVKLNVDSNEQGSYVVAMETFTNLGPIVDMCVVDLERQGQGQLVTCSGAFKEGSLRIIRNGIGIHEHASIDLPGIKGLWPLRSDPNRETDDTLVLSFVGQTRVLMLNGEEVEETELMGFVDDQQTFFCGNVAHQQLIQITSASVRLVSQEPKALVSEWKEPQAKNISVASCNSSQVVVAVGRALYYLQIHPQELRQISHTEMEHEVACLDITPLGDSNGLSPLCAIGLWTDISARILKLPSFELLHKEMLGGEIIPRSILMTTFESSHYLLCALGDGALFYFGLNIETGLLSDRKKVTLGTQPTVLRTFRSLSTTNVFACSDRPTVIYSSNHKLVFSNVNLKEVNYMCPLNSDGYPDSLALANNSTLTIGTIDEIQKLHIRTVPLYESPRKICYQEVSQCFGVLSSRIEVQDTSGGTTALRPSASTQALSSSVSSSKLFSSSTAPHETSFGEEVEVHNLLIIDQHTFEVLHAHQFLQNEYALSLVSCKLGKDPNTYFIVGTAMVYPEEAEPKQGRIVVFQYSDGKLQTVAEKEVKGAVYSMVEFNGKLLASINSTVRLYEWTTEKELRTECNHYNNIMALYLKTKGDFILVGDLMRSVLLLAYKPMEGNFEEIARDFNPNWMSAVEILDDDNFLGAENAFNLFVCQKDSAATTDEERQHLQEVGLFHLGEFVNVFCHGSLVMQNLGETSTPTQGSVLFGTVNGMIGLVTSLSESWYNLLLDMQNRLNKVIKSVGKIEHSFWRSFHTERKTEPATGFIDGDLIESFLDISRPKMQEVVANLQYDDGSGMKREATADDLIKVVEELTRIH
# procedure-details: Helios Cellular Degradation Assay (Helios readout)
# Type: cell-based
# Set-up: endogenous in cells; host or cells: Jurkat
# protocol-conditions: Jurkat cells, 72 h incubation, Helios-PE antibody staining, flow cytometry; read-out: Helios Jurkat IC50
measurement-label: DC50 (nM)

| molecule | result-value |
| --- | --- |
| N#Cc1ccnc(-c2ccc3c(c2)CN(C2CCC(=O)NC2=O)C3=O)c1 (stereo not shown) [Example 110] | 880 |
| Nc1cncc(-c2ccc3c(c2)CN(C2CCC(=O)NC2=O)C3=O)n1 (stereo not shown) [Example 142] | 1350 |
| COc1ccc2nc(-c3ccc4c(c3)CN(C3CCC(=O)NC3=O)C4=O)ccc2c1 (stereo not shown) [Example 29] | 25 |
| O=C1CCC(N2Cc3cc(-c4cc5ccccc5c(C5CC5)n4)ccc3C2=O)C(=O)N1 (stereo not shown) [Example 89] | 2200 |
